Where these numbers come from: ChEMBL document CHEMBL4627315

Quick reference: inhibition zone (IZ) of the listed items.
System: Aspergillus flavus
Experiment: Antifungal activity against Aspergillus flavus assessed as zone of inhibition by serial dilution and disc diffusion method
Assay type: functional
readout: inhibition zone (IZ)

compound string	value
Cc1nc(-c2ccc(F)c(Br)c2)n(CCN2CCNCC2)c1C	18 - 21 mm
Cc1nc(-c2ccc(F)cc2)n(CCN2CCNCC2)c1C	16 - 22 mm
C[C@@H]1[C@H](O)[C@@H](C)/C=C/C=C/C=C/C=C/C=C/C=C/C=C/[C@H](O[C@@H]2O[C@H](C)[C@@H](O)[C@H](N)[C@@H]2O)C[C@@H]2O[C@](O)(C[C@@H](O)C[C@@H](O)[C@H](O)CC[C@@H](O)C[C@@H](O)CC(=O)O[C@H]1C)C[C@H](O)[C@H]2C(=O)O	11 - 14 mm
Cc1nc(-c2ccc(Cl)cc2)n(CCN2CCNCC2)c1C	16 - 20 mm
Cc1nc(-c2cccs2)n(CCN2CCNCC2)c1C	16 - 200 mm

* * *

Test system: Rhizopus
Assay: Antifungal activity against Rhizopus assessed as zone of inhibition by serial dilution and disc diffusion method
Assay type: functional

molecule	inhibition zone (IZ)
Cc1nc(-c2ccc(F)c(Br)c2)n(CCN2CCNCC2)c1C	18 - 21 mm
Cc1nc(-c2cccs2)n(CCN2CCNCC2)c1C	16 - 200 mm
Cc1nc(-c2ccc(F)cc2)n(CCN2CCNCC2)c1C	16 - 22 mm
C[C@@H]1[C@H](O)[C@@H](C)/C=C/C=C/C=C/C=C/C=C/C=C/C=C/[C@H](O[C@@H]2O[C@H](C)[C@@H](O)[C@H](N)[C@@H]2O)C[C@@H]2O[C@](O)(C[C@@H](O)C[C@@H](O)[C@H](O)CC[C@@H](O)C[C@@H](O)CC(=O)O[C@H]1C)C[C@H](O)[C@H]2C(=O)O [AMPHOTERICIN B]	11 - 14 mm
Cc1nc(-c2ccc(Cl)cc2)n(CCN2CCNCC2)c1C	16 - 20 mm

* * *

Test system: Aspergillus niger
Assay: Antifungal activity against Aspergillus niger assessed as zone of inhibition by serial dilution and disc diffusion method
Format: functional

compound string	inhibition zone (IZ)
Cc1nc(-c2ccc(Cl)cc2)n(CCN2CCNCC2)c1C	16 - 20 mm
C[C@@H]1[C@H](O)[C@@H](C)/C=C/C=C/C=C/C=C/C=C/C=C/C=C/[C@H](O[C@@H]2O[C@H](C)[C@@H](O)[C@H](N)[C@@H]2O)C[C@@H]2O[C@](O)(C[C@@H](O)C[C@@H](O)[C@H](O)CC[C@@H](O)C[C@@H](O)CC(=O)O[C@H]1C)C[C@H](O)[C@H]2C(=O)O	11 - 14 mm
Cc1nc(-c2ccc(F)cc2)n(CCN2CCNCC2)c1C	16 - 22 mm
Cc1nc(-c2ccc(F)c(Br)c2)n(CCN2CCNCC2)c1C	18 - 21 mm
Cc1nc(-c2cccs2)n(CCN2CCNCC2)c1C	16 - 200 mm
